Exercise: for every item that follows, state its recorded TGI.
- Test system: OVCAR-3 ovarian
- test-method-notes: NCI tumour cell line growth inhibition, 48 h
One number for each entry, in µM.

Quick one: give me TGI for each item below, same order please.
1. COc1ccccc1[C@@H]1CCC2CC[C@@H](c3ccccc3OC)[N+]21Cc1ccccc1 (stereo not given in full)
2. Clc1ccc(Nc2nnc(CNc3ccc(-c4nnc(Nc5ccc(Cl)cc5)o4)cc3)o2)cc1
3. COC1=CC(c2ccc[nH]2)=N/C1=C\c1[nH]c(C)c(C)c1CCC(=O)OCc1ccccc1
4. C=CNC(=S)n1nc(-c2ccccc2NC(=O)C(F)(F)F)c(=O)n(C(=S)NC=C)c1=S

[10.7, 23.9, 1.35, 28.8]

---

- System: HCT-15 colon
- test-method-notes: NCI tumour cell line growth inhibition, 48 h
Exercise: for every item that follows, state its recorded TGI.
Give bare numbers, in µM.

COc1cccc2c1C(=O)c1c(O)c3c(c(O)c1C2=O)CC(O)(C(C)=O)CC3O (centres undefined) | 39.8
O=[N+]([O-])c1cccc([I+]c2ccccc2)c1 | 30.1
CC(=O)N1CCN(CCCCN2c3ccccc3Sc3cc(N=[N+]=[N-])ccc32)CC1 | 28.1
C[C@]12CCC(=O)C=C1CC[C@@H]1C2CC[C@@]2(C)C1CC[C@@H]2OC(=O)C12OC1CCC2=O (some centres undefined) | 30.7

Please turn your attention to the following entry.
Given C=C(C)[C@@H]1CC[C@]2(C(=O)N3CCN(C)CC3)CC[C@]3(C)[C@H](CC[C@@H]4[C@@]5(C)CC[C@H](O)C(C)(C)[C@@H]5CC[C@]43C)[C@@H]12 , state its recorded TGI.
3.86

---

- Tested on: CCRF-CEM leukemia
- test-method-notes: NCI tumour cell line growth inhibition, 48 h
property-name: TGI

O=C1C(=O)N(C23CC4CC(CC(C4)C2)C3)C(=S)N1c1ccccc1 | > 100 µM
COC(=O)C1=C(C)NC2=C(C(=O)c3ccccc32)C1c1cn[nH]c1-c1ccccc1 (configuration not stated) | > 100 µM
COc1ccc2nc3c([N+](=O)[O-])ccc(NCCCN(C)C)c3c(N)c2c1 | 1.26 µM

Quick one: give me TGI for each item below, same order please.
1. COc1cc(CC2C(=O)OCC2[C@@H](OC(C)=O)c2ccc3c(c2)OCO3)c(Br)c(OC)c1OC (some centres not stated)
2. COc1cc(/C=C/c2ccc(S(N)(=O)=O)cc2)cc(OC)c1
3. Cn1cc(-c2ccc3nnc(C(F)(F)c4ccc5ncccc5c4)n3n2)cn1
4. O=C(Nc1nc(-c2ccccc2Cl)cs1)c1cc(-c2ccc(Cl)cc2)nc2ccc(Cl)cc12
5. CCOC(=O)[C@@]12NN=N[C@@H]1[C@H]1CO[C@H](c3ccccc3)N1C2=O
6. O=C1CCc2ccccc2O1

1. > 100 µM
2. 52.3 µM
3. > 100 µM
4. > 100 µM
5. > 100 µM
6. > 100 µM

Quick one: give me TGI for each item below, same order please.
1. COc1ccc(N2C(=O)C3C=CC(n4[nH]c(=O)n(Cc5ccccc5)c4=O)CC3C2=O)cc1 (configuration not stated)
2. COC(=O)C1=Cc2cn(S(=O)(=O)c3ccc(C)cc3)c3cccc(c23)C(C=C(C)C)N1C(C)=O (configuration not stated)
3. COC(=O)[C@H](C)[C@@H]1CC[C@](C)(CCC2=C(C)CCCC2(C)C)OO1
4. CON(C(=O)OC(C)(C)C)c1ccccc1
5. CCCCc1c2c(nc3c1CCCC3=O)CCCC2

1: > 100 µM; 2: 77.4 µM; 3: > 25 µM; 4: > 100 µM; 5: > 100 µM
